Value source: patent US11524940B1

Molecular target: 229E Mpro (Human coronavirus 229E (HCoV-229E))
Assay: 229E Mpro activity
Assay type: biochemical
Conditions: read-out: 229E Mpro EC50
pEC50: −log10 of the molar value.
PROPERTY NAME: pEC50

MOLECULE: N#Cc1ccc2cc(C(=O)N[C@@H](CC3CC3)C(=O)N[C@H](C#N)C[C@@H]3CCCNC3=O)[nH]c2c1 [Compound 862]
PROPERTY NAME: pEC50
ENDPOINT VALUE: > 5.70
//
MOLECULE: CC1(C)CC(C[C@@H](C#N)NC(=O)C2CC3(CCCCC3)CN2C(=O)c2cc3cccc(Cl)c3[nH]2)C(=O)N1 (single isomer, unassigned) [930 (Isomer 5)]
PROPERTY NAME: pEC50
ENDPOINT VALUE: < 4.52
//
MOLECULE: COc1cccc2[nH]c(C(=O)N3C[C@H](OC(C)(C)C)C[C@H]3C(=O)N[C@H](C#N)C[C@@H]3CCNC3=O)cc12 [Compound 165]
PROPERTY NAME: pEC50
ENDPOINT VALUE: < 4.52
//
MOLECULE: COc1cccc2[nH]c(C(=O)N[C@@H](CC3CC3)C(=O)N[C@@]3(C#N)CCc4cccnc4C3)cc12 [Compound 279]
PROPERTY NAME: pEC50
ENDPOINT VALUE: < 4.52
//
MOLECULE: N#C[C@H](C[C@@H]1CCNC1=O)NC(=O)[C@H](CC1CC1)NC(=O)c1cc2c(Cl)cccc2[nH]1 [Compound 647]
PROPERTY NAME: pEC50
ENDPOINT VALUE: > 5.70
//
MOLECULE: COc1cccc2[nH]c(C(=O)N[C@@H](CC(C)C)C(=O)N[C@@H](C[C@@H]3CCNC3=O)C(C#N)N3CCCC3)cc12 (single isomer, unassigned) [331 (Isomer 2)]
PROPERTY NAME: pEC50
ENDPOINT VALUE: > 5.70

----------
Target: 229E Mpro (Human coronavirus 229E (HCoV-229E), UniProt P0C6X1)
Sequence (P0C6X1 2966-3267 limits assumed): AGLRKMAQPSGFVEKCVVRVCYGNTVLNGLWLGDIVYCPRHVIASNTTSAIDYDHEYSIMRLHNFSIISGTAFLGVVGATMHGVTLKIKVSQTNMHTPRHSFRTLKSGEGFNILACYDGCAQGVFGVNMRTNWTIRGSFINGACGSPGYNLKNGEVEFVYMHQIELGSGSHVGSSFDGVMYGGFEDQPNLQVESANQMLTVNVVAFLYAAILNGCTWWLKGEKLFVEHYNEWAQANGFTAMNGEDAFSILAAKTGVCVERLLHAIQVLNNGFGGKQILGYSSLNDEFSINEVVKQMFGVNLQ
Test: 229E Mpro activity
Format: biochemical
Details: read-out: 229E Mpro EC50
PROPERTY NAME: EC50

MOLECULE: COc1cccc2[nH]c(C(=O)N[C@@H](CC(C)C)C(=O)N[C@H](C#N)Cc3cn(C)cn3)cc12 [Compound 227]
ENDPOINT VALUE: > 30000 nM
--
MOLECULE: COc1cccc2[nH]c(C(=O)N[C@@H](CC(C)C)C(=O)N[C@H](C#N)Cc3cncn3C)cc12 [Compound 225]
ENDPOINT VALUE: > 30000 nM
--
MOLECULE: COc1cccc2[nH]c(C(=O)N[C@@H](CC(C)C)C(=O)N[C@@H](C[C@@H]3CCNC3=O)C(=O)CO)cc12 [Compound 741]
ENDPOINT VALUE: < 2000 nM
--
MOLECULE: COc1cccc2[nH]c(C(=O)N[C@@H](CC3CC3)C(=O)N[C@H](C#N)C[C@@H]3CCCNC3=O)cc12 (single isomer, unassigned) [491 (Isomer 1)]
ENDPOINT VALUE: < 2000 nM
--
MOLECULE: COc1ccc2[nH]c(C(=O)N[C@@H](CC3CC3)C(=O)N[C@H](C#N)C[C@@H]3CCCNC3=O)cc2n1 [Compound 621]
ENDPOINT VALUE: < 2000 nM
--
MOLECULE: COc1cccc2[nH]c(C(=O)N[C@@H](CC3CC3(F)F)C(=O)N[C@H](C#N)C[C@@H]3CCCNC3=O)cc12 (single isomer, unassigned) [1059 (Isomer 1)]
ENDPOINT VALUE: < 2000 nM
--
MOLECULE: COCCOCCOc1cccc2[nH]c(C(=O)N[C@@H](CC3CC3)C(=O)N[C@H](C#N)C[C@@H]3CCCNC3=O)cc12 [Compound 1057]
ENDPOINT VALUE: < 2000 nM
--
MOLECULE: COc1cccc2[nH]c(C(=O)N3C[C@H](c4ccccc4)C[C@H]3C(=O)N[C@H](C#N)C[C@@H]3CCCNC3=O)cc12 [Compound 611]
ENDPOINT VALUE: < 2000 nM
--
MOLECULE: N#C[C@H](C[C@@H]1CCCNC1=O)NC(=O)C1CC2(CCC2)CN1C(=O)c1cc2cccc(Cl)c2[nH]1 (single isomer, unassigned) [729 (Isomer 2)]
ENDPOINT VALUE: < 2000 nM
--
MOLECULE: N#C[C@H](C[C@@H]1CCCNC1=O)NC(=O)C1CC2(CCCCC2)CN1C(=O)c1cc2cccc(Cl)c2[nH]1 (single isomer, unassigned) [731 (Isomer 1)]
ENDPOINT VALUE: < 2000 nM
--
MOLECULE: CC1(C)CCC(C[C@@H](C#N)NC(=O)C2CC3(CCCCC3)CN2C(=O)c2cc3cccc(Cl)c3[nH]2)C(=O)N1 (single isomer, unassigned) [928 (Isomer 4)]
ENDPOINT VALUE: > 30000 nM
--
MOLECULE: COc1cccc2[nH]c(C(=O)N3CC4(CC3C(=O)N[C@H](C#N)C[C@@H]3CCCNC3=O)CC(F)(F)C4)cc12 (single isomer, unassigned) [723 (Isomer 2)]
ENDPOINT VALUE: < 2000 nM
--
MOLECULE: N#C[C@H](C[C@@H]1CCCNC1=O)NC(=O)C1CC2(CCC2)CN1C(=O)c1cc2c(Cl)cccc2[nH]1 (single isomer, unassigned) [803 (Isomer 2)]
ENDPOINT VALUE: > 30000 nM
--
MOLECULE: CC(C)(C)OC(=O)N1CCCCC12CCN(C(CC1CC1)C(=O)N[C@H](C#N)C[C@@H]1CCNC1=O)C2=O (single isomer, unassigned) [473 (Isomer 1)]
ENDPOINT VALUE: > 30000 nM
--
MOLECULE: COc1cc(Cl)cc2[nH]c(C(=O)N3CC4(CCCCC4)CC3C(=O)N[C@H](C#N)C[C@@H]3CCCNC3=O)cc12 (single isomer, unassigned) [908 (Isomer 1)]
ENDPOINT VALUE: < 2000 nM
--
MOLECULE: COc1cccc2[nH]c(C(=O)N[C@@H](CC3CC3)C(=O)NC(C#N)CN3CCNC3=O)cc12 (mixture of isomers) [Compound 493]
ENDPOINT VALUE: > 30000 nM
--
MOLECULE: COCCOCCOC(=O)N[C@@H](CC1CC1)C(=O)N[C@H](C#N)C[C@@H]1CCNC1=O [Compound 671]
ENDPOINT VALUE: 10000 to 30000 nM
--
MOLECULE: COc1cccc2[nH]c(C(=O)N3CC4(CCCCC4)CC3C(=O)N[C@H](C#N)C[C@@H]3CCCNC3=O)cc12 (single isomer, unassigned) [603a (Isomer 1)]
ENDPOINT VALUE: < 2000 nM
--
MOLECULE: COc1cccc2[nH]c(C(=O)N[C@@H](CC3CC3)C(=O)N[C@@]3(C#N)C[C@@H]4CC[C@H]3[C@@H]3C(=O)NC(=O)[C@H]43)cc12 (single isomer, unassigned) [489 (Isomer 2)]
ENDPOINT VALUE: > 30000 nM
--
MOLECULE: COc1cc(Cl)cc2[nH]c(C(=O)N[C@@H](CC(C)(C)C)C(=O)N[C@H](C#N)C[C@@H]3CCCNC3=O)cc12 [Compound 1149]
ENDPOINT VALUE: < 2000 nM
--
MOLECULE: COc1ccc2[nH]c(C(=O)N[C@@H](CC(C)(C)C)C(=O)N[C@H](C#N)C[C@@H]3CCCNC3=O)cc2c1Cl [Compound 808]
ENDPOINT VALUE: < 2000 nM
--
MOLECULE: COc1cccc2[nH]c(C(=O)N3CC4(CCOCC4)C[C@H]3C(=O)N[C@H](C#N)C[C@@H]3CCNC3=O)cc12 [Compound 387]
ENDPOINT VALUE: > 30000 nM
--
MOLECULE: N#C[C@H](C[C@@H]1CCNC1=O)NC(=O)[C@H](CC1CC1)NC(=O)c1cc2ccc(Cl)cc2[nH]1 [Compound 529]
ENDPOINT VALUE: < 2000 nM
--
MOLECULE: COc1cc(Cl)c2[nH]c(C(=O)N3CC4(CCCCC4)CC3C(=O)N[C@H](C#N)C[C@@H]3CCCNC3=O)cc2c1 (single isomer, unassigned) [1147A (Isomer 2)]
ENDPOINT VALUE: 10000 to 30000 nM
